Target: hGYS1 enzyme (recombinant hGYS1/GN1 protein) (Homo sapiens (Human))
Sequence (P13807 whole entry): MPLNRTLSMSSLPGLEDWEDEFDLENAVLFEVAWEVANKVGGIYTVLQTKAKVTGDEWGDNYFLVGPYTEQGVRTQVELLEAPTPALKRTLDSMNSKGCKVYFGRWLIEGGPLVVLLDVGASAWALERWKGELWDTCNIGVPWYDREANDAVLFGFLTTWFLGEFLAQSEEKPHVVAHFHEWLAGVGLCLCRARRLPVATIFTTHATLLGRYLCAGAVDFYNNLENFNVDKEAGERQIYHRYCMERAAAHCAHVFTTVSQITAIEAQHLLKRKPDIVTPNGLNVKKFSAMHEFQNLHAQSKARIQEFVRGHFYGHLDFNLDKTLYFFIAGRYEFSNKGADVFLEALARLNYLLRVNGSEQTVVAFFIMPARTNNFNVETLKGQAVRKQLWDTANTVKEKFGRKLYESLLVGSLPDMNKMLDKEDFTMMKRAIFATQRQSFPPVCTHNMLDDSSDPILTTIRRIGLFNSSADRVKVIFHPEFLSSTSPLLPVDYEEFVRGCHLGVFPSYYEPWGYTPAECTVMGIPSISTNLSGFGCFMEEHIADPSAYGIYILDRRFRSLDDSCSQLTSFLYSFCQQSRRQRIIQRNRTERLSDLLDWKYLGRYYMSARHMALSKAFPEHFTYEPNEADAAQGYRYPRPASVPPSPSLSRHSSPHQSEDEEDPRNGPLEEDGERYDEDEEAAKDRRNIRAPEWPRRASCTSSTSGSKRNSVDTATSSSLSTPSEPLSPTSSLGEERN
Sequence (P46976 whole entry partner): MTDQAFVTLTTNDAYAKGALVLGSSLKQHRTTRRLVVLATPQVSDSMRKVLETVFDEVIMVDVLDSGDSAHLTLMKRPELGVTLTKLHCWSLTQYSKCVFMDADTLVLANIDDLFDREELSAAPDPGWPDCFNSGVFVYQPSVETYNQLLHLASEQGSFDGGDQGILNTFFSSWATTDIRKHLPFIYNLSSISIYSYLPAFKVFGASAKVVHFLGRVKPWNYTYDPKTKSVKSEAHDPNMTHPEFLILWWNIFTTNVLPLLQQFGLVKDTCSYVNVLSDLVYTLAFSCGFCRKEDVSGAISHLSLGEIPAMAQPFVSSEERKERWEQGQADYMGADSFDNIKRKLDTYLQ
Experiment: GYS1 coupled enzyme assay (PK/LDH)
Settings: hGYS1/GN1 50 nM, UDP-Glucose 0.8 mM, G6P 1 mM; geometric mean of at least 2 runs
Text: The GYS1 coupled enzyme assay is a kinetic biochemical assay that indirectly quantifies the rate of glycogen synthesis by coupling the conversion of GYS1 substrate UDP-glucose into UDP with downstream enzymatic reactions. UDP is released from UDP-glucose as glucose monomers are linked into the growing glycogen strand by GYS1. […] Oxidation of NADH to NAD+ can be measured continuously with a plate reader by quantifying the decrease in NADH absorbance at 340 nm over time. […]
pIC50: −log10 of the molar value.
property: pIC50

I = O=C(N[C@@H](c1ccccc1)c1ccc(C2CC2)c(F)n1)[C@@H]1C[C@@H](F)CN1C(=O)Cn1nncc1N1CCC1
II = CC(C)c1ccc([C@@H](NC(=O)[C@@H]2C[C@@H](F)CN2C(=O)Cn2ccc3c(F)cccc32)c2ccccc2)cc1
Req: Given I and II , report the one with the higher recorded pIC50. Which one? Tell me its label.
Resp: I

P = COc1ccccc1[C@H](NC(=O)[C@@H]1CCCN1C(C)=O)c1ccc(C(C)C)cc1
Q = O=C(N[C@@H](c1ccccc1)c1ccc(C2CC2)c(F)n1)[C@@H]1C[C@@H](F)CN1C(=O)Cc1[nH]nnc1C(F)(F)F
Req: // which entry reports the smaller pIC50, P or Q ? Which one? Tell me its label.
Resp: P

----------
biological target: hGYS1 enzyme (recombinant hGYS1/GN1 protein) (Homo sapiens (Human)); assay: GYS1 coupled enzyme assay (PK/LDH); conditions: hGYS1/GN1 50 nM, UDP-Glucose 0.8 mM, G6P 1 mM; geometric mean of at least 2 runs
property: IC50 (nM)

Solved cases below.
compound	testedOn	IC50 [nM]
CC(=O)N1C[C@H](O)C[C@H]1C(=O)N[C@@H](c1ccccc1)c1ccc(C(C)C)cc1 [Compound 205]	hGYS1 enzyme (recombinant hGYS1/GN1 protein) (Homo sapiens (Human))	3740
CNC(=O)NCc1cccc([C@H](NC(=O)[C@@H]2C[C@@H](F)CN2C(=O)Cc2cnn[nH]2)c2ccc(C(C)C)c(F)n2)c1 [Compound 656]	hGYS1 enzyme (recombinant hGYS1/GN1 protein) (Homo sapiens (Human))	1300
CC(C)c1ccc([C@H](NC(=O)[C@@H]2C[C@@H](F)CN2C(=O)Cc2cnn[nH]2)c2ccccc2)nc1F (relative stereo) [Compound 776]	hGYS1 enzyme (recombinant hGYS1/GN1 protein) (Homo sapiens (Human))	1150
Cc1cnn(CC(=O)N2C[C@H](F)C[C@H]2C(=O)N[C@@H](c2ccccc2)c2ccc(C(C)C)cc2)c1 [Compound 56]	hGYS1 enzyme (recombinant hGYS1/GN1 protein) (Homo sapiens (Human))	41

P = CC(C)c1ccc([C@@H](NC(=O)[C@@H]2C[C@@H](F)CN2C(=O)c2cc(-n3ccnc3)ccn2)c2ccccc2)cc1 [Compound 707]
Q = Cn1ncc(CC(=O)N2C[C@H](F)C[C@H]2C(=O)N[C@@H](c2ccccc2)c2ccc(C3CC3)c(F)n2)c1C(F)F [Compound 751]
R = O=C(N[C@@H](c1ccccc1)c1ccc(C2CC2)c(F)c1)[C@@H]1C[C@@H](F)CN1C(=O)Cc1cn[nH]c1 [Compound 437]
Req: Ascending by IC50, please: list the compounds accordingly. Answer format: list of labels, ordered as asked.
Resp: Q, R, P

Values from patent US11814367B2
